biological target: MAP4K5 (Homo sapiens)
Sequence (Q9Y4K4 whole entry): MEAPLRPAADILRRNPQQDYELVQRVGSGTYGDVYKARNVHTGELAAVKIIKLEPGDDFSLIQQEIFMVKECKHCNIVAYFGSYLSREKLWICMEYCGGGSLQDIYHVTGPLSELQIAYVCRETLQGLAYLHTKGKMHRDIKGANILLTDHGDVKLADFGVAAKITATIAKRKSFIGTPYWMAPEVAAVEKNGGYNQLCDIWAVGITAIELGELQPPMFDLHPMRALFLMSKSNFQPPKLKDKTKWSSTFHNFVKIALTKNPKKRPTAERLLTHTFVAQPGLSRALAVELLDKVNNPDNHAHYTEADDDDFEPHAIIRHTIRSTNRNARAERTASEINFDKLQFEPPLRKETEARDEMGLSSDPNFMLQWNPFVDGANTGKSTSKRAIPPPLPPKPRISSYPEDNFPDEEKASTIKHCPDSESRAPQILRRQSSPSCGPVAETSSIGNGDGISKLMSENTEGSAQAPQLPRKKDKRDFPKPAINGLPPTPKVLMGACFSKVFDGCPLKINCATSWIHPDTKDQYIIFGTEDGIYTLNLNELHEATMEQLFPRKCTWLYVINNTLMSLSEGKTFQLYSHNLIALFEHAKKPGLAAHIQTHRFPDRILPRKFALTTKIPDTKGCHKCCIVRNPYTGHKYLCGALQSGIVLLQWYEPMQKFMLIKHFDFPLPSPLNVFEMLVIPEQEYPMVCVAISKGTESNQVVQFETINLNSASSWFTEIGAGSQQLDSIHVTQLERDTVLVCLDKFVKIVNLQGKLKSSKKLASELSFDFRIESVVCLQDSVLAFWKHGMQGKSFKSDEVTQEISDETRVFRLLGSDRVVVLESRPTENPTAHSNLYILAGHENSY
pIC50: −log10 of the molar value.
recorded-metric: pIC50

>>> readout_number("CCCn1c(NC(=O)c2cccc(C(N)=O)c2)nc2ccc(CN3CCCCC3)cc21 [HS-276]")
6.91

###

target: IRAK4 (Homo sapiens, UniProt Q9NWZ3); test: Potency of takinib analogues against IRAK4; assay type: biochemical; conditions: read-out: IRAK4 IC50
Sequence (Q9NWZ3 whole entry): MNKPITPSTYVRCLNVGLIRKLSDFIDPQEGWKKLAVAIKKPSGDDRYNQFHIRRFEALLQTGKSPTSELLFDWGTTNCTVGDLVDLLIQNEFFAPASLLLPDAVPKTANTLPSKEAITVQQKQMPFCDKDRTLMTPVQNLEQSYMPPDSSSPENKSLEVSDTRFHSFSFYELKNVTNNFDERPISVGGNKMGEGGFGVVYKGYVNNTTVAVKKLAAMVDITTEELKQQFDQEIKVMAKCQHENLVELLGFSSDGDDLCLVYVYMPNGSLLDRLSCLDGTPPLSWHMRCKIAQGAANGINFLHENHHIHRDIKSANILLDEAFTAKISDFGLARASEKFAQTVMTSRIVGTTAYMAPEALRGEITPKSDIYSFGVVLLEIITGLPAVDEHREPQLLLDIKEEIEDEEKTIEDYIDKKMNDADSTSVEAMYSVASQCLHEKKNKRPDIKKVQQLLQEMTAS
recorded-metric: IC50 (µM)

>>> readout_number("CCCn1c(NC(=O)c2cccc(C(N)=O)c2)nc2ccc(CN3CCCCC3)cc21")
2.5

###

Target: UniProt:O43318
Sequence (O43318 1-303 limits assumed): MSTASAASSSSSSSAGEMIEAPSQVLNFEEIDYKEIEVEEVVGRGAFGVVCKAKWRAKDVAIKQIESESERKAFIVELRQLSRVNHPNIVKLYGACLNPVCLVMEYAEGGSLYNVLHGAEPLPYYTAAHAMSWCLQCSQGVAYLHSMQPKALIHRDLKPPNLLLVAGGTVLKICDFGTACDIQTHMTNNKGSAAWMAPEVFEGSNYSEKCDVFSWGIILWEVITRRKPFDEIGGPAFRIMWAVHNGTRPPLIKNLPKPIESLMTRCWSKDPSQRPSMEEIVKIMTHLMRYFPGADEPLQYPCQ
recorded-metric: Ki (nM)

>>> readout_number("CCCn1c(NC(=O)c2cccc(C(N)=O)c2)nc2ccc(CN3CCCCC3)cc21")
2.5

###

biological target: CAMKKβ−1 (Homo sapiens, UniProt Q96RR4)
Sequence (Q96RR4 whole entry): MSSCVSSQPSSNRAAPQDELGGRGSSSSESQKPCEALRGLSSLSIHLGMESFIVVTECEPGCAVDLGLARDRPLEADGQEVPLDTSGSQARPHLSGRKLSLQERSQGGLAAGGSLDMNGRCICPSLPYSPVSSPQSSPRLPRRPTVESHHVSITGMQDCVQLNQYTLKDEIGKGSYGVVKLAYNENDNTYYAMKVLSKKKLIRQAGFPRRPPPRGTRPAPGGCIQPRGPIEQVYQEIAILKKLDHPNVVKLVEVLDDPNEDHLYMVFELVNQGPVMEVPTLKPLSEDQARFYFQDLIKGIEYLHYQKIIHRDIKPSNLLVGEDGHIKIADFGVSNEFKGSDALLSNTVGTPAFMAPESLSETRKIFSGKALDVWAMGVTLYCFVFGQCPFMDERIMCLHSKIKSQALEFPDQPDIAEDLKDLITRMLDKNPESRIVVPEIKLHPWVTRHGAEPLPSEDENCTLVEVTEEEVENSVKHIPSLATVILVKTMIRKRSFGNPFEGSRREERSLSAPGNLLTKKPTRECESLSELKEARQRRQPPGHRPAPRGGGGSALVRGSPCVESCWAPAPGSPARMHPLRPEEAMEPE
pIC50: −log10 of the molar value.
recorded-metric: pIC50

>>> readout_number("CCCn1c(NC(=O)c2cccc(C(N)=O)c2)nc2ccc(CN3CCCCC3)cc21")
5.89

###

Target: TAK1 (Homo sapiens)
Sequence (O43318 with tags, fused parts or gaps limits assumed): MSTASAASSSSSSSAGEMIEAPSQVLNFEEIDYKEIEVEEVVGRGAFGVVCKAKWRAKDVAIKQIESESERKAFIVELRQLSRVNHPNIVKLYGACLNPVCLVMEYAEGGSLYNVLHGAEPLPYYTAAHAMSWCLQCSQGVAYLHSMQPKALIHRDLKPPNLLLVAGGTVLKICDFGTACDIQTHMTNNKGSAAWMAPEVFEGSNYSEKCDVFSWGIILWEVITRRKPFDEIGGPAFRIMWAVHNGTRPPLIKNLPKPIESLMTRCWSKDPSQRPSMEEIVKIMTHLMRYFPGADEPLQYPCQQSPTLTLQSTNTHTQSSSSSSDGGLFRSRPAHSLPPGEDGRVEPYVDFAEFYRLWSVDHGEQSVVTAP
Experiment: Dose–response of top 10 kinase hits
Assay type: biochemical
Conditions: read-out: IC50 TAK1, n = 2
pIC50: −log10 of the molar value.
recorded-metric: pIC50

>>> readout_number("CCCn1c(NC(=O)c2cccc(C(N)=O)c2)nc2ccc(CN3CCCCC3)cc21 [HS-276]")
8.10

###

Target: GCK (Homo sapiens, UniProt Q12851)
Sequence (Q12851 1-820): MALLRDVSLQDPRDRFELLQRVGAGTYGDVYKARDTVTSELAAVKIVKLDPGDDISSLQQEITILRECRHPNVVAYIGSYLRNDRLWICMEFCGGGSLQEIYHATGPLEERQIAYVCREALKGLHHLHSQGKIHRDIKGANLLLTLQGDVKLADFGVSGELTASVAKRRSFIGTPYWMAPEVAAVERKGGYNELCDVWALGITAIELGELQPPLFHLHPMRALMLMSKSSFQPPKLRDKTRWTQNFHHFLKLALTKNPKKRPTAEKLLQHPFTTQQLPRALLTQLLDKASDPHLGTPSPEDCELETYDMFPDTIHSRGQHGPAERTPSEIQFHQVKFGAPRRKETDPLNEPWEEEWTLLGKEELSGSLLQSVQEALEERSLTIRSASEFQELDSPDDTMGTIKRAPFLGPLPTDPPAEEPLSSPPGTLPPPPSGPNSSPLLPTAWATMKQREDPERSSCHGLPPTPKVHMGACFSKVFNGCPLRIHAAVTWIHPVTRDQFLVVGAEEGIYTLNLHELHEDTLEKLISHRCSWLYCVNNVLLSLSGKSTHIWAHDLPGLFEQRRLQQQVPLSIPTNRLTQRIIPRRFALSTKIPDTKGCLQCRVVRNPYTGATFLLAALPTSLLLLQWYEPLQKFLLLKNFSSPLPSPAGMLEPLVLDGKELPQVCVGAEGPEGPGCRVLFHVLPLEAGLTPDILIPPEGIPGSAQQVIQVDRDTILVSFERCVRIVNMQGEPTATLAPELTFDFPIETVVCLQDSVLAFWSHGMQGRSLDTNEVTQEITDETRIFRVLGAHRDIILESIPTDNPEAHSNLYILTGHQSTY
recorded-metric: IC50 (nM)

>>> readout_number("CCCn1c(NC(=O)c2cccc(C(N)=O)c2)nc2ccc(CN3CCCCC3)cc21 [HS-276]")
33

###

biological target: NUAK (Homo sapiens, UniProt O60285); assay: Dose–response of top 10 kinase hits; format: biochemical; details: read-out: IC50 NUAK, n = 2
Sequence (O60285 whole entry): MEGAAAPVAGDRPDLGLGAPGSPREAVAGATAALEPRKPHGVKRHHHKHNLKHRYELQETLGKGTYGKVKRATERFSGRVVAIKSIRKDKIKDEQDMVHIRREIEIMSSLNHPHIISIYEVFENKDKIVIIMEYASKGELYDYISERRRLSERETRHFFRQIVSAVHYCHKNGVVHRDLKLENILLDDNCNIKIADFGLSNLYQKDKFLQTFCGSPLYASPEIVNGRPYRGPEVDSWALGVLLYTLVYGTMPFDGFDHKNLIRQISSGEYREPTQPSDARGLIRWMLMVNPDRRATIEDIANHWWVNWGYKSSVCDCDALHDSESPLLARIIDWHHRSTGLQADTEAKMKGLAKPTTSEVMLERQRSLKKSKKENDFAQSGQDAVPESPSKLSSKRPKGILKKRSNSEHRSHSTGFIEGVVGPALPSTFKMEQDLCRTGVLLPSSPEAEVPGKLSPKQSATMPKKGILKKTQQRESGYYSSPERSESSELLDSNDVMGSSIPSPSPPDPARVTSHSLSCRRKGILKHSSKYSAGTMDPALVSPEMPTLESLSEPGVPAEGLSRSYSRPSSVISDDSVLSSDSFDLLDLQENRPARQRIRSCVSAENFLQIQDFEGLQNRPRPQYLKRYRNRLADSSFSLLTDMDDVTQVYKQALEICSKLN
recorded-metric: IC50 (nM)

>>> readout_number("CCCn1c(NC(=O)c2cccc(C(N)=O)c2)nc2ccc(CN3CCCCC3)cc21 [HS-276]")
270

###

Target: ULK2 (Homo sapiens, UniProt Q8IYT8)
Sequence (Q8IYT8 1-1036): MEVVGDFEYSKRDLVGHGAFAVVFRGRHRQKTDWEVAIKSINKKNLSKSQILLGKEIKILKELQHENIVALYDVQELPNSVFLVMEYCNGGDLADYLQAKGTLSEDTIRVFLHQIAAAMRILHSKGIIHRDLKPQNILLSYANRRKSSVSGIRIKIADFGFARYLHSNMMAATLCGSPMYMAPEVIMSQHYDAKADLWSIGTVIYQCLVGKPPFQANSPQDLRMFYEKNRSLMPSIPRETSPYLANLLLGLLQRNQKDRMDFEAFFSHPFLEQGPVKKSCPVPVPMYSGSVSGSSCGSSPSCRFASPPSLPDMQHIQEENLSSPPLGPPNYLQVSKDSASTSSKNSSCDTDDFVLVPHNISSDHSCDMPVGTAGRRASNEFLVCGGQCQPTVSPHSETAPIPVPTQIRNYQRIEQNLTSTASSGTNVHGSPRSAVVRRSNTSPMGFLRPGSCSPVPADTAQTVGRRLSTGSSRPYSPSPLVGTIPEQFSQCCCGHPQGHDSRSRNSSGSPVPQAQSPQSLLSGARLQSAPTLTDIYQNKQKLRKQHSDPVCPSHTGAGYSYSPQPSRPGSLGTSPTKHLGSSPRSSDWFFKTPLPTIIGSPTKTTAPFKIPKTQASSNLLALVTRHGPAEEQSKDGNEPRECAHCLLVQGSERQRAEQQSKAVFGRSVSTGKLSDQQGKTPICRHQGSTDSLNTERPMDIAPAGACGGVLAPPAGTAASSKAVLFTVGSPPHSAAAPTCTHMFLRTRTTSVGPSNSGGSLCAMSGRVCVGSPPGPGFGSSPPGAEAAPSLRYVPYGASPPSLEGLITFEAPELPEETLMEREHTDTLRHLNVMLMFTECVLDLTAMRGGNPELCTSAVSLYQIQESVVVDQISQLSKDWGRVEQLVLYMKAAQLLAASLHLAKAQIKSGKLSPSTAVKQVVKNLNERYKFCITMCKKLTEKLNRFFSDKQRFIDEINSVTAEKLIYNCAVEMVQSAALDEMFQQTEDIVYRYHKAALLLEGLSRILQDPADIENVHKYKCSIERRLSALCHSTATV
recorded-metric: IC50

>>> result("CCCn1c(NC(=O)c2cccc(C(N)=O)c2)nc2ccc(CN3CCCCC3)cc21")
"63 nM"

###

biological target: CLK2 (Homo sapiens)
Sequence (P49760 whole entry): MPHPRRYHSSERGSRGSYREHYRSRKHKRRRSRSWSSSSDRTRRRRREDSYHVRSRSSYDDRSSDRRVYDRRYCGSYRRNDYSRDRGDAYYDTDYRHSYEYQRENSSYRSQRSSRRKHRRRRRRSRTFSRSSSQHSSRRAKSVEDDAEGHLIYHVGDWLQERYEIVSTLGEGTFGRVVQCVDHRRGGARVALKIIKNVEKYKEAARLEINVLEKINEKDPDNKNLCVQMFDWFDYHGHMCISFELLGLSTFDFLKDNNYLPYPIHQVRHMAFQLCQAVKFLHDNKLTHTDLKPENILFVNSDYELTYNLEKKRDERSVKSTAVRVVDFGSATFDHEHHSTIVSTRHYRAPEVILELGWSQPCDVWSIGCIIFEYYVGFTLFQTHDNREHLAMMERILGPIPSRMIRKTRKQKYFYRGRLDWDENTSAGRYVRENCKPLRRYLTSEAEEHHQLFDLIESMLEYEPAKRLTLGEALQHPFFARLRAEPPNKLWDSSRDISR
pIC50: −log10 of the molar value.
recorded-metric: pIC50

>>> readout_number("CCCn1c(NC(=O)c2cccc(C(N)=O)c2)nc2ccc(CN3CCCCC3)cc21 [HS-276]")
7.54

###

biological target: MLK1 (Homo sapiens, UniProt P80192)
Sequence (P80192 whole entry): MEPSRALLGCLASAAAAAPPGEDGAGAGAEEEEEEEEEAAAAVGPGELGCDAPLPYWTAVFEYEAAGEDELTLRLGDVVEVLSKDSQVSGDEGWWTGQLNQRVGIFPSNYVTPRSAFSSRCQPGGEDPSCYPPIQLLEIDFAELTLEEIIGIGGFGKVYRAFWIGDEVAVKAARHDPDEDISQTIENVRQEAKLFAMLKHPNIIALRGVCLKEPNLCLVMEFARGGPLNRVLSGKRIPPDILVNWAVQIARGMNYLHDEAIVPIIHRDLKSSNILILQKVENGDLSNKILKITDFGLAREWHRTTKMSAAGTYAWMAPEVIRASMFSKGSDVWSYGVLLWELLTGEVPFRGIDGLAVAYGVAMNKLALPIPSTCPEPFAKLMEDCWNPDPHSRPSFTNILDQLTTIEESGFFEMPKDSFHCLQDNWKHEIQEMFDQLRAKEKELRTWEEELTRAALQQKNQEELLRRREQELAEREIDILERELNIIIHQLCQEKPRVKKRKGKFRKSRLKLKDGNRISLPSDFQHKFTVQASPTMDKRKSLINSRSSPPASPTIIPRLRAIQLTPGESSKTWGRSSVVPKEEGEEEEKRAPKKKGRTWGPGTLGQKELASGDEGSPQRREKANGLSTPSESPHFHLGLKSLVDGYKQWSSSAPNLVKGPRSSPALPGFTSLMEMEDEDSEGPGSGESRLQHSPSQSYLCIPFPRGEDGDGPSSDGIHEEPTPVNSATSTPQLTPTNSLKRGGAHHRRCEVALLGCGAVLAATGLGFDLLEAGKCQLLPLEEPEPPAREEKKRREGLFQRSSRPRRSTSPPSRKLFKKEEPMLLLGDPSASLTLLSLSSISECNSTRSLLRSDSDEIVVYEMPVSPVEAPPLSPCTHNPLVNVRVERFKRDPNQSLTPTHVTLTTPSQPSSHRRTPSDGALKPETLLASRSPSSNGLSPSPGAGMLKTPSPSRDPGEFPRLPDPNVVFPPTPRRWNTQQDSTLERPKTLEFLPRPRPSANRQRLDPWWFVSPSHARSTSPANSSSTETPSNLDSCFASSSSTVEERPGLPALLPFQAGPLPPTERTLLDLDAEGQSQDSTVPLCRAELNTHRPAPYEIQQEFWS
recorded-metric: IC50 (µM)

>>> readout_number("CCCn1c(NC(=O)c2cccc(C(N)=O)c2)nc2ccc(CN3CCCCC3)cc21")
5.58
